- Tested on: E. faecalis 12201
- Experiment summary: MIC, agar dilution
- Type: cell-based
- Condition: Enterococcus 12201; Table IA; unit assumed
Catalogue of compounds with associated Antibacterial activity (MIC)
Numbers only; they are read as µg/mL.

Some compounds with recorded Antibacterial activity (MIC):
| Compound | Assay result |
| --- | --- |
| CN(C)c1cc(NC(=O)CN2CCC2)c(O)c2c1CC1CC3C(N(C)C)C(O)=C(C(N)=O)C(=O)C3(O)C(O)=C1C2=O (stereo not drawn) [LLL] | 0.25 |
| CC(C(=O)Nc1cc(N(C)C)c2c(c1O)C(=O)C1=C(O)[C@]3(O)C(=O)C(C(N)=O)=C(O)[C@@H](N(C)C)C3CC1C2)N(C)C.Cl.Cl (stereo partly drawn) [XX] | 0.12 |
| CC(C)CNCC(=O)Nc1cc(N(C)C)c2c(c1O)C(=O)C1=C(O)C3(O)C(=O)C(C(N)=O)=C(O)C(N(C)C)C3CC1C2.Cl.Cl (stereo not drawn) [TT] | 0.25 |
| CN(C)c1cc(NC(=O)CBr)c(O)c2c1CC1CC3[C@H](N(C)C)C(O)=C(C(N)=O)C(=O)[C@@]3(O)C(O)=C1C2=O.Cl.Cl (stereo partly drawn) [III] | 1 |
| CN(C)c1cc(NC(=O)CNC2CCC2)c(O)c2c1CC1CC3C(N(C)C)C(O)=C(C(N)=O)C(=O)C3(O)C(O)=C1C2=O (stereo not drawn) [MMM] | 0.24 |

Query compound follows.
I'd like to know its Antibacterial activity (MIC). The compound in question is CNCC(=O)Nc1cc(N(C)C)c2c(c1O)C(=O)C1=C(O)[C@]3(O)C(=O)C(C(N)=O)=C(O)[C@@H](N(C)C)C3CC1C2.Cl.Cl (stereo partly drawn) [MM] 0.25

###

- System: E. faecalis 12201
- Experiment summary: MIC, agar dilution
- Assay type: cell-based
- Condition: Enterococcus 12201; Table IA; unit assumed
Counter-ions that a name gives are not always drawn.
Readout type: log10(Antibacterial activity (MIC)) (log10 of the value in µg/mL)
Scale type: logarithmic (base 10). Underlying Antibacterial activity (MIC) unit: µg/mL.

Worked set:
| Compound | Assayed system | log10(Antibacterial activity (MIC)) |
| --- | --- | --- |
| CN(C)c1cc(NC(=O)Cn2ccnc2)c(O)c2c1CC1CC3[C@H](N(C)C)C(O)=C(C(N)=O)C(=O)[C@@]3(O)C(O)=C1C2=O.Cl.Cl (stereo partly drawn) | E. faecalis 12201 | 0.60 |
| CN(C)c1cc(NC(=O)CN2CCCC2)c(O)c2c1CC1CC3[C@H](N(C)C)C(O)=C(C(N)=O)C(=O)[C@@]3(O)C(O)=C1C2=O (stereo partly drawn) [SS, dihydrochloride] | E. faecalis 12201 | -0.92 |
| CN(C)CC(=O)Nc1cc(N(C)C)c2c(c1O)C(=O)C1=C(O)[C@]3(O)C(=O)C(C(=O)NCN4CCCC4)=C(O)[C@@H](N(C)C)C3CC1C2 (stereo partly drawn) | E. faecalis 12201 | -0.92 |
| CCCCN(C)CC(=O)Nc1cc(N(C)C)c2c(c1O)C(=O)C1=C(O)C3(O)C(=O)C(C(N)=O)=C(O)C(N(C)C)C3CC1C2.Cl.Cl (stereo not drawn) | E. faecalis 12201 | -0.60 |
| CCN(CC)CC(=O)Nc1cc(N(C)C)c2c(c1O)C(=O)C1=C(O)[C@]3(O)C(=O)C(C(N)=O)=C(O)[C@@H](N(C)C)C3CC1C2.Cl.Cl (stereo partly drawn) | E. faecalis 12201 | -0.92 |

Consider the compound CN(C)c1cc(NC(=O)CN2CCCCC2)c(O)c2c1CC1CC3C(N(C)C)C(O)=C(C(N)=O)C(=O)C3(O)C(O)=C1C2=O.Cl.Cl (stereo not drawn) and give its measured log10(Antibacterial activity (MIC)). -0.92

Which log10(Antibacterial activity (MIC)) reading was recorded for the compound CC(C(=O)Nc1cc(N(C)C)c2c(c1O)C(=O)C1=C(O)C3(O)C(=O)C(C(N)=O)=C(O)C(N(C)C)C3CC1C2)N1CCCC1.Cl.Cl (stereo not drawn) ? -0.92

Look up log10(Antibacterial activity (MIC)): CCCNCC(=O)Nc1cc(N(C)C)c2c(c1O)C(=O)C1=C(O)C3(O)C(=O)C(C(N)=O)=C(O)C(N(C)C)C3CC1C2.Cl.Cl (stereo not drawn) -0.92

Need log10(Antibacterial activity (MIC)) of CN(C)c1cc(NC(=O)CN2CCOCC2)c(O)c2c1CC1CC3[C@H](N(C)C)C(O)=C(C(N)=O)C(=O)[C@@]3(O)C(O)=C1C2=O.Cl.Cl (stereo partly drawn) , thanks. 0.30

Please give the measured log10(Antibacterial activity (MIC)) for this compound: Br.CC(Br)C(=O)Nc1cc(N(C)C)c2c(c1O)C(=O)C1=C(O)C3(O)C(=O)C(C(N)=O)=C(O)C(N(C)C)C3CC1C2 (stereo not drawn) 1.20

Look up log10(Antibacterial activity (MIC)) for this compound: CCNCC(=O)Nc1cc(N(C)C)c2c(c1O)C(=O)C1=C(O)[C@]3(O)C(=O)C(C(N)=O)=C(O)[C@@H](N(C)C)C3CC1C2.Cl.Cl (stereo partly drawn) -0.60

I am curious: what log10(Antibacterial activity (MIC)) value has been reported for CCCCCCNCC(=O)Nc1cc(N(C)C)c2c(c1O)C(=O)C1=C(O)[C@]3(O)C(=O)C(C(N)=O)=C(O)[C@@H](N(C)C)C3CC1C2 (stereo partly drawn) [BBB, dihydrochloride] ? -0.60

###

- System: TetM S30 extract, derivative of E. coli MRE600 containing the tetM determinant
- Experiment summary: E. coli in vitro transcription and protein translation, 35S-methionine incorporation (Table VIII)
- Condition: 1.0 mg/ml
Readout type: % INHIBITION TetM S30 (%)
Entry rule: numbers only, all in %.

| Molecule | % INHIBITION TetM S30 / % |
| --- | --- |
| CC(C(=O)Nc1cc(N(C)C)c2c(c1O)C(=O)C1=C(O)[C@]3(O)C(=O)C(C(N)=O)=C(O)[C@@H](N(C)C)C3CC1C2)N(C)C.Cl.Cl (some centres unmarked) | 97 |
| CCNCC(=O)Nc1cc(N(C)C)c2c(c1O)C(=O)C1=C(O)[C@]3(O)C(=O)C(C(N)=O)=C(O)[C@@H](N(C)C)C3CC1C2.Cl.Cl (some centres unmarked) | 99 |
| CN(C)c1cc(NC(=O)CNC2CC2)c(O)c2c1CC1CC3C(N(C)C)C(O)=C(C(N)=O)C(=O)C3(O)C(O)=C1C2=O.Cl.Cl (centres unmarked) | 99 |
| CCN(CC)CC(=O)Nc1cc(N(C)C)c2c(c1O)C(=O)C1=C(O)[C@]3(O)C(=O)C(C(N)=O)=C(O)[C@@H](N(C)C)C3CC1C2.Cl.Cl (some centres unmarked) | 99 |
| CNCC(=O)Nc1cc(N(C)C)c2c(c1O)C(=O)C1=C(O)[C@]3(O)C(=O)C(C(N)=O)=C(O)[C@@H](N(C)C)C3CC1C2.Cl.Cl (some centres unmarked) | 99 |

Requested read-out: % INHIBITION TetM S30. Entry: CN(C)CC(=O)Nc1cc(N(C)C)c2c(c1O)C(=O)C1=C(O)[C@]3(O)C(=O)C(C(N)=O)=C(O)[C@@H](N(C)C)C3CC1C2.Cl.Cl (some centres unmarked) 95

If you can, please state the reported % INHIBITION TetM S30 value of CCCNCC(=O)Nc1cc(N(C)C)c2c(c1O)C(=O)C1=C(O)C3(O)C(=O)C(C(N)=O)=C(O)C(N(C)C)C3CC1C2.Cl.Cl (centres unmarked) . 98

Param item = CN(C)c1cc(NC(=O)Cn2ccnc2)c(O)c2c1CC1CC3[C@H](N(C)C)C(O)=C(C(N)=O)C(=O)[C@@]3(O)C(O)=C1C2=O.Cl.Cl (some centres unmarked) ; retrieve measured % INHIBITION TetM S30. 98

###

Measured MIC of individual entries
- System: S. aureus UBMS 88-7 (tetK)
- Experiment summary: MIC, agar dilution
- Assay type: cell-based
- Condition: S. aureus UBMS 88-7 (tetK)
Write down the numeric answer in µg/mL and omit the unit.

Worked cases, MIC given:
| Compound | Unit of measurement | MIC |
| --- | --- | --- |
| CN(C)c1cc(NC(=O)c2ccccc2)c(O)c2c1CC1CC3C(N(C)C)C(O)=C(C(N)=O)C(=O)C3(O)C(O)=C1C2=O (stereo not drawn) [P] | µg/mL | 8 |
| CN(C)c1cc(NC(=O)c2cccs2)c(O)c2c1CC1CC3C(N(C)C)C(O)=C(C(N)=O)C(=O)C3(O)C(O)=C1C2=O (stereo not drawn) [Z] | µg/mL | 32 |
| CN(C)c1cc(NS(=O)(=O)c2ccc([N+](=O)[O-])cc2)c(O)c2c1CC1CC3C(N(C)C)C(O)=C(C(N)=O)C(=O)C3(O)C(O)=C1C2=O (stereo not drawn) [AA] | µg/mL | 2 |
| CN(C)c1cc(NC(=O)c2ccccc2F)c(O)c2c1CC1CC3C(N(C)C)C(O)=C(C(N)=O)C(=O)C3(O)C(O)=C1C2=O (stereo not drawn) [S] | µg/mL | 8 |

Please report the recorded MIC for CN(C)c1cc(NS(=O)(=O)c2cccc([N+](=O)[O-])c2)c(O)c2c1CC1CC3C(N(C)C)C(O)=C(C(N)=O)C(=O)C3(O)C(O)=C1C2=O (stereo not drawn) [BB] . 4

The values you see were collected from patent USRE40086E1.
